Entry source: ChEMBL document CHEMBL1208676

Test: Cytotoxicity against african green monkey Vero cells after 72 hrs by MTT assay
Assay type: cell-based
Conditions: chlorocebus sabaeus
READOUT_KIND: CC50 at 72 h (µM)
Give bare numbers, in µM.

Solved cases (5 shown):
CNC1CCCN(c2c(F)cc3c(=O)c(C(=O)O)cn(C4CC4)c3c2OC)C1 (configuration not stated); 317
COc1c(N2CCCC(N(C)CCN3C(=O)/C(=N\NC(N)=O)c4cc(F)ccc43)C2)c(F)cc2c(=O)c(C(=O)O)cn(C3CC3)c12 (configuration not stated); 57
COc1c(N2CCCC(N(C)CCN3C(=O)C(=O)c4cc(F)ccc43)C2)c(F)cc2c(=O)c(C(=O)O)cn(C3CC3)c12 (configuration not stated); 96.2
COc1c(N2CCCC(N(C)CCN3C(=O)C(=O)c4ccccc43)C2)c(F)cc2c(=O)c(C(=O)O)cn(C3CC3)c12 (configuration not stated); 137
COc1c(N2CCCC(N(C)CCN3C(=O)/C(=N/O)c4cc(F)ccc43)C2)c(F)cc2c(=O)c(C(=O)O)cn(C3CC3)c12 (configuration not stated); 306

Okay, next one:
# CC50 at 72 h lookup, item COc1c(N2CCCC(N(C)CCN3C(=O)/C(=N\NC(N)=S)c4cc(F)ccc43)C2)c(F)cc2c(=O)c(C(=O)O)cn(C3CC3)c12 (configuration not stated)
313

---

Assay: Cytotoxicity against african green monkey Vero cells after 72 hrs by MTT assay
Type: cell-based
Details: chlorocebus sabaeus
Can you tell me CC50 at 72 h for the items I'm about to list?
One number for each entry, in µM.

CO/N=C1/C(=O)N(CCN(C)C2CCCN(c3c(F)cc4c(=O)c(C(=O)O)cn(C5CC5)c4c3OC)C2)c2ccc(F)cc21 (stereo not drawn); 12.8

Okay, next one:
# CC50 at 72 h lookup, item CCO/N=C1/C(=O)N(CCN(C)C2CCCN(c3c(F)cc4c(=O)c(C(=O)O)cn(C5CC5)c4c3OC)C2)c2ccccc21 (stereo not drawn)
60.5

---

Can you tell me logP for the items I'm about to list?
Assay: Lipophilicity, log P of the compound
Format: physicochemical
Settings: octanol/water
Answers are plain numbers.

COc1c(N2CCCC(N(C)CCN3C(=O)/C(=N\NC(N)=S)c4cc(F)ccc43)C2)c(F)cc2c(=O)c(C(=O)O)cn(C3CC3)c12 (stereo not given); 1.8
CCO/N=C1/C(=O)N(CCN(C)C2CCCN(c3c(F)cc4c(=O)c(C(=O)O)cn(C5CC5)c4c3OC)C2)c2ccc(F)cc21 (stereo not given); 1.29
COc1c(N2CCCC(N(C)CCN3C(=O)/C(=N\NC(N)=S)c4ccccc43)C2)c(F)cc2c(=O)c(C(=O)O)cn(C3CC3)c12 (stereo not given); 1.4
CCO/N=C1/C(=O)N(CCN(C)C2CCCN(c3c(F)cc4c(=O)c(C(=O)O)cn(C5CC5)c4c3OC)C2)c2ccccc21 (stereo not given); 0.96

Okay, next one:
# logP lookup, item CNC1CCCN(c2c(F)cc3c(=O)c(C(=O)O)cn(C4CC4)c3c2OC)C1 (stereo not given)
-1.11

---

Assay: Cytotoxicity against african green monkey Vero cells after 72 hrs by MTT assay
Format: cell-based
Settings: chlorocebus sabaeus
Can you tell me CC50 at 72 h for the items I'm about to list?
Give bare numbers, in µM.

CCO/N=C1/C(=O)N(CCN(C)C2CCCN(c3c(F)cc4c(=O)c(C(=O)O)cn(C5CC5)c4c3OC)C2)c2ccc(F)cc21 (centres undefined); 53.1
COc1c(N2CCCC(N(C)CCN3C(=O)/C(=N\NC(N)=O)c4ccccc43)C2)c(F)cc2c(=O)c(C(=O)O)cn(C3CC3)c12 (centres undefined); 56.1
CO/N=C1/C(=O)N(CCN(C)C2CCCN(c3c(F)cc4c(=O)c(C(=O)O)cn(C5CC5)c4c3OC)C2)c2ccccc21 (centres undefined); 15

# CC50 at 72 h lookup, item COc1c(N2CCCC(N(C)CCN3C(=O)/C(=N\NC(N)=S)c4ccccc43)C2)c(F)cc2c(=O)c(C(=O)O)cn(C3CC3)c12 (centres undefined)
294
